Values from a melting point compilation (Tetko et al.; mined from patent text by program, amines drawn as free bases though some values may be those of a salt)

measurement.label: melting point

Consider the compound shown here: "CCC(=O)NNC(=O)C(=O)NC1CC(C)(C)NC(C)(C)C1" What is its recorded melting point?
221 to 225 °C

Consider the compound shown here: "CCN(CC)C(=O)n1cnc(S(=O)(=O)CC2CCC2)n1" What is its recorded melting point?
113 to 116 °C

Consider the compound shown here: "O=C(NCc1cccc(-c2ccc(CS(=O)(=O)Cc3n[nH]c(=O)[nH]3)cc2)c1)c1nc2ccccc2c(=O)[nH]1" What is its recorded melting point?
245 to 247 °C

Consider the compound shown here: "CCC(=O)c1cc2c(Cl)cccc2s1" What is its recorded melting point?
96 to 98 °C

Consider the compound shown here: "CN1CCc2c(c3cc(F)ccc3n2CCc2nc(-c3ccccc3)cs2)C1" What is its recorded melting point?
136 to 137 °C

Consider the compound shown here: "CC(=NC1CCCCC1)NC12CC3CC(CC(C3)C1)C2" What is its recorded melting point?
185 to 187 °C

Consider the compound shown here: "Cc1ccccc1-c1cc(O)ncc1C(=O)N(C)Cc1cc(C(F)(F)F)cc(C(F)(F)F)c1" What is its recorded melting point?
91 to 93 °C

Consider the compound shown here: "COc1ccc(NC(=O)c2ccc(C#N)cc2)cc1" What is its recorded melting point?
155 to 157 °C

Consider the compound shown here: "CCOC(=O)c1cnn(C)c1C(=O)Nc1ccc2nc(N3CCOCC3)nn2c1" What is its recorded melting point?
234 °C

Consider the compound shown here: OC1(F)CC(c2ccccc2)=Nc2ccccc21 (stereo not given) What is its recorded melting point?
298 to 302 °C
